molecular target: T1, recombinant SARS-CoV-2 Spike RBD domain, BA.2.75.2 variant (SARS-CoV-2); assay: ELISA on coated RBD
T1 construct: also called RBD BA.2.75.2 variant
Measured metric: Binding AUC

[[record]]
binder = "SPK002M C2 antibody (antibody, human IgG1, kappa, V domains shown) VH: EVQLVESGGGLIQPGGSLRLSCAASIITVTSNYMSWVRQAPGKGLEWVSVAYPGGSTFYADSVKGRFTISTDNSKNTLYLQMNSLRAEDTAVYYCARDLVVYGMDVWGQGTTVTVSS VL: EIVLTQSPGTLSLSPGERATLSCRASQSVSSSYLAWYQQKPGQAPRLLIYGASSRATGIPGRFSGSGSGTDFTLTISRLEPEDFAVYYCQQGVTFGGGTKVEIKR"
value_observed = 28

[[record]]
binder = "SPK002M B2 antibody (antibody, human IgG1, kappa, V domains shown) VH: EVQLVESGGGLIQPGGSLRLSCAASIITVTSNYMSWVRQAPGKGLEWVSVIYPGGSTFYADSVKGRFTISYDNSKNTLYLQMNSLRAEDTAVYYCARDLVVYGMDVWGQGTTVTVSS VL: EIVLTQSPGTLSLSPGERATLSCRASQSVSSSYLAWYQQKPGQAPRLLIYGASSRATGIPGRFSGSGSGTDFTLTISRLEPEDFAIYYCQQGVTFGGGTKVEIKR"
value_observed = 29

[[record]]
binder = "SPK002M A5 antibody (antibody, human IgG1, kappa, V domains shown) VH: EVQLVESGGGLIQPGGSLRLSCAASVITVTSNYMSWVRQAPGKGLEWVSVIYPGGSTFYADSVKGRFTISADNSKNTLYLQMNSLRAEDTAVYYCARDLVVYGMDVWGQGTTVTVSS VL: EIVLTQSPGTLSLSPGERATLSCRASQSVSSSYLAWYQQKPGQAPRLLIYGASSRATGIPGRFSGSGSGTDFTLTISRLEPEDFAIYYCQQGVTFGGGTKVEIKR"
value_observed = 34

